Entry source: PubChem BioAssay (NCI)

The following compounds are listed with their measured growth values.
Tested on: MCF7 breast
Assay: NCI-60 one-dose screen, 48 h (100 = growth as untreated, 0 = no growth, -100 = all killed)
Settings: 10 µM unless noted
This is part of a sample that, as a whole, favours compounds with a hit. Of some 83,000 tested, about 20% had one in any assay.
observable: growth (%)

INSERT INTO results (compound, tested_system, measured_value) VALUES
  ('CCOc1ccccc1-c1cc(-c2cccs2)c(C#N)c(=O)[nH]1', 'MCF7 breast', 37.1),
  ('O=C1/C(=C2/C=Nc3ccccc32)N(O)c2ccccc21', 'MCF7 breast', 40.3),
  ('CCOC(=O)c1c(-c2ccc(Cl)cc2)c(C#N)c(=O)n(-c2ccccc2CC)c1N', 'MCF7 breast', 90.7),
  ('C[n+]1cc2cc(C(N)=O)[nH]c3c(=N)c(Cl)c(N)c1c23', 'MCF7 breast', 35.8),
  ('O=c1c2c3c(sc2nc(N/N=C/c2ccc(Br)cc2)n1Cc1ccccc1)CCCC3', 'MCF7 breast', 58.3),
  ('Oc1c(CN2CCCC2)cc(COCc2ccc(Br)cc2)c2cccnc12', 'MCF7 breast', 11.7),
  ('COc1cc(N=Nc2cc(Cc3ccc(N(C)C)cc3)c(N)cc2N(C)C)c2ncccc2c1', 'MCF7 breast', -1.6),
  ('Cc1cc(C(=O)c2ccccc2)c(C)c2c1[nH]c1ccc(Cl)cc12', 'MCF7 breast', 13.1),
  ('O=c1ssc(Cl)c1-c1ccccc1', 'MCF7 breast', 89.3),
  ('Cc1ccc(-n2c(-c3ccccc3)c(-c3ccccc3)c3c(SCC(=O)n4[nH]c(N)cc4=O)ncnc32)cc1', 'MCF7 breast', 86.7),
  ('COc1ccc(C(=NN=C(N)N)c2ccc(OC)cc2)cc1', 'MCF7 breast', 5.47),
  ('COc1cccc(-c2nn(-c3ccccc3)cc2-c2ccnc(NCCNC(=O)c3ccccc3)c2)c1', 'MCF7 breast', 62.5),
  ('O=C1C=C[C@]2(C[C@@H](c3cccc(C(F)(F)F)c3)O[C@@H](c3cccc(C(F)(F)F)c3)O2)O1', 'MCF7 breast', -7.92),
  ('O=C(CCCCCCN1CC(=O)N2[C@@H](c3ccccc3Cl)c3[nH]c4ccccc4c3C[C@H]2C1=O)NO', 'MCF7 breast', 44),
  ('O=C(CCc1nnc(CN(c2ccccc2)c2ccccc2)o1)c1nc2ccccc2[nH]1', 'MCF7 breast', 76),
  ('COC(=O)[C@]12CC[C@@H](C)[C@H](C)[C@@H]1C1=CC[C@@H]3[C@@]4(C)C(C=O)=C[C@@](C)(COC(C)=O)[C@@H]4[C@H](O)C[C@@]3(C)[C@]1(C)CC2', 'MCF7 breast', -11.7),
  ('Cc1cccc(NC(=O)N/C(N)=N/c2nc(C)c(C)s2)c1', 'MCF7 breast', 27),
  ('Cc1ccc(-c2c(-c3ccccc3)c(=O)oc3ccc(C)cc23)cc1', 'MCF7 breast', 116),
  ('C=CCSc1nc2ccccc2cc1/C=N/O', 'MCF7 breast', 78),
  ('COCN1CCC2N(COC)CCC3N(COC)CCC1N23 (stereo not given)', 'MCF7 breast', 99.4);
